Entry source: the supplement of paper PMC11451515

Consider the following molecules and their measured AUC of viability dose-response curve readings.
System: NOMO1
assay-text: AUC of viability dose-response curve (% viability x log10 dose units); higher = less sensitive
applied-conditions: HPLM + 10% dialyzed FBS; 48 h

molecule | AUC of viability dose-response curve
CC(C)[C@H](C(=O)Nc1ccc(C(=O)NO)cc1)c1ccccc1 | 361
Cc1oncc1C(=O)Nc1ccc(C(F)(F)F)cc1 | 458
NC[C@H](O)c1ccc(O)c(O)c1 | 411
NC(=O)c1nnn(Cc2cc(Cl)c(C(=O)c3ccc(Cl)cc3)c(Cl)c2)c1N | 465
C/C1=C/C(=C(/CNC(=O)C2=CC(=CC3=C2C=N[N]3C4CCCC4)C5=CC=C(CN6CCOCC6)C=C5)C(=O)N1)C | 448
O=C(Nc1cccnc1)N1CCC(Cc2cccc(Oc3ccc(C(F)(F)F)cn3)c2)CC1 | 405
CC[C@H](CO)Nc1nc(NCc2ccccc2)c2ncn(C(C)C)c2n1 | 432
CN1CCN2c3ccccc3Cc3ccccc3C2C1 (centres undefined) | 433
CN(C[C@@H]1COCCO1)[S+]([O-])(=O)NC2=CC3=C(C=C2)\C=C/C4=C(C=C(C=N4)C5=C[N](C)N=C5)C3=O | 324
N#CC1(c2cccc(C(=O)Nc3cc(Oc4ccc5nc(NC(=O)C6CC6)sc5n4)ccc3F)c2Cl)CC1 | 344
C/C(O)=C(\C#N)C(=O)Nc1ccc(C(F)(F)F)cc1 | 457
CCC(=O)NC[C@H](Cc1ccc(OCCc2nc(-c3ccccc3)oc2C)cc1)N/C(C)=C\C(=O)c1ccc(C(F)(F)F)cc1 | 433
O=C(Nc1ccccc1)Nc1ccc(-c2ccc(C(=O)[C@@H]3CCC[C@H]3C(=O)O)cc2)cc1 | 406
N[C@@H]1C[C@H]1c1ccccc1 | 464
COc1ccc(/C=C/C(=O)Nc2ccccc2C(=O)O)cc1OC | 434
CCC(=O)N1CCN(CC1)C2=C(C=C(C=C2)N3C(=O)\C=C/C4=C3C5=CC(=CC=C5N=C4)C6=CN=C7C=CC=CC7=C6)C(F)(F)F | 376
Nc1cc(N2CCCCC2)nc(N)[n+]1[O-] | 451
OC1=CC(=C(C=C1)\C2=C(O)\C(=O)C3=C(O2)C=C(O)C=C3O)O | 450
F\C1=C\NC(=O)NC1=O | 414
